Each record here notes measured OX2R Kb/OX1R Kb.
- TARGET_OR_SYSTEM: human Orexin 1 receptor (Homo sapiens, UniProt O43613)
- Construct: stably expressing the full-length human Orexin 1 receptor; expressed in transfected cells; host or cells: CHO-K1 (CHO-K1/hOX1), co-expressing aequorin
- Sequence (O43613 1-425): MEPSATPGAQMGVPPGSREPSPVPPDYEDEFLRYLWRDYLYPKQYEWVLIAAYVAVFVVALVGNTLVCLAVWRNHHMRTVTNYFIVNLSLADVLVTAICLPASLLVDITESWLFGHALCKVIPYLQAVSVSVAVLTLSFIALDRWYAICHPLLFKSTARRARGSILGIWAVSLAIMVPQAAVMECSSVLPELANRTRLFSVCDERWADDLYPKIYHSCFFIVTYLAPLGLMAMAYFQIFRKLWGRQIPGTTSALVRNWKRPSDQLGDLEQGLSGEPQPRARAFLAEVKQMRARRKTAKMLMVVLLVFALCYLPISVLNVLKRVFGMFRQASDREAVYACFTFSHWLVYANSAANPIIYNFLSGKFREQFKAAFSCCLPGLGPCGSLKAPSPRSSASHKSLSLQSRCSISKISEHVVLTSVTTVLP
- TEST_DESCRIPTION: Assay A: In vitro testing of OX1R potency: OX1R IP1 (HTRF, CHO-K1/hOX1 cells, Orexin A as agonist)
- Format: cell-based
- ASSAY_SETUP: OX1R Kb at 50 nM Orexin A
# respond with the number and nothing more

Inquiry: I am curious: what OX2R Kb/OX1R Kb value has been reported for CCN(C(=O)c1cccc(F)c1-c1ncccn1)[C@@H](C)COc1ccc(OC(F)(F)F)cn1 ?
Reply text: 133

Inquiry: I am curious: what OX2R Kb/OX1R Kb value has been reported for CCN(C(=O)c1ccc(C)cc1-c1nnc(C)o1)[C@@H](C)COc1ccc(OC(F)(F)F)cn1 ?
Reply text: 293

Inquiry: I am curious: what OX2R Kb/OX1R Kb value has been reported for CCN(C(=O)c1ccc(Cl)cc1-n1nccn1)[C@@H](C)COc1ccc(Cl)cn1 ?
Reply text: 59

Inquiry: I am curious: what OX2R Kb/OX1R Kb value has been reported for CCN(C(=O)c1c(-n2nccn2)ccc(C)c1F)[C@@H](C)COc1ccc(C(F)(F)F)cn1 ?
Reply text: 640

Inquiry: I am curious: what OX2R Kb/OX1R Kb value has been reported for CCN(C(=O)c1ccc(Cl)cc1-n1nccn1)[C@@H](C)COc1ncc(C(F)(F)F)cc1F ?
Reply text: 734

Inquiry: I am curious: what OX2R Kb/OX1R Kb value has been reported for CCN(C(=O)c1ccccc1-c1ccn(C)n1)[C@@H](C)COc1ccc(C(F)(F)F)cn1 ?
Reply text: 229

Let's switch to this compound now.
Inquiry: I am curious: what OX2R Kb/OX1R Kb value has been reported for CCN(C(=O)c1cc(F)cc(F)c1-n1nccn1)[C@@H](C)COc1ccc(OC(F)(F)F)cn1 ?
Reply text: 66

* * *

- TARGET_OR_SYSTEM: human Orexin 1 receptor (Homo sapiens)
- Construct: stably expressing the full-length human Orexin 1 receptor; expressed in transfected cells; host or cells: CHO-K1 (CHO-K1/hOX1), co-expressing aequorin
- TEST_DESCRIPTION: Assay A: In vitro testing of OX1R potency: OX1R IP1 (HTRF, CHO-K1/hOX1 cells, Orexin A as agonist)
- Assay type: cell-based
- ASSAY_SETUP: Orexin A 0.5 nM; read-out: OX1R Kb (Orexin A concentration used)
MEASURED_METRIC: Kb (nM)
Only the number, expressed in nM, is required.

Example entries begin here.
Inquiry: I am curious: what Kb value has been reported for CCN(C(=O)c1cccc(F)c1-c1nnc(C)o1)[C@@H](C)COc1ccc(C(F)(F)F)cn1 ?
Reply text: 0.8

Inquiry: I am curious: what Kb value has been reported for CCN(C(=O)c1ccccc1-c1cnc(OC)nc1)[C@@H](C)COc1ccc(C(F)(F)F)cn1 ?
Reply text: 1.4

Let's switch to this compound now.
Inquiry: I am curious: what Kb value has been reported for CCN(C(=O)c1cccc(F)c1-c1nnc(C)o1)[C@@H](C)COc1ncc(C(F)(F)F)cc1F ?
Reply text: 3.27

* * *

Each record here notes measured log10 of Kb.
- TARGET_OR_SYSTEM: human orexin 2 receptor (Homo sapiens, UniProt O43614)
- Construct: stably expressing the full-length human orexin 2 receptor; expressed in transfected cells; host or cells: CHO-K1 (CHO-K1/hOX2), co-expressing aequorin
- Sequence (O43614 1-444): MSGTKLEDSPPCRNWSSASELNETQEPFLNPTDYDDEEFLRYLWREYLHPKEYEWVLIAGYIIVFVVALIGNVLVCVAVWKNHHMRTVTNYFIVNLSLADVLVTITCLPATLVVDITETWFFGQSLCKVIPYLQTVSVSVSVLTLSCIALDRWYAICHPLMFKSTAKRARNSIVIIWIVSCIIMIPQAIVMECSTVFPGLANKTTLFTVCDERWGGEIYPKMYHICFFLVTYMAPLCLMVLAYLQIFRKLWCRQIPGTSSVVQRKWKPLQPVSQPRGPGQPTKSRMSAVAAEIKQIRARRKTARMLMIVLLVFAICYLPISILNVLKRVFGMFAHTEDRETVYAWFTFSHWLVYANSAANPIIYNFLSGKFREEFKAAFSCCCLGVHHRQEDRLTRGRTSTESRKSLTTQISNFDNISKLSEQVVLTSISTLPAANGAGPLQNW
- TEST_DESCRIPTION: Assay B: In vitro testing of OX2R potency: OX2R IP1 (HTRF, CHO-K1/hOX2 cells, Orexin A as agonist)
- Format: cell-based
- ASSAY_SETUP: Orexin A 0.5 nM
Hello, just confirming the data are log10 of Kb with units of nM.

Example entries begin here.
Inquiry: I'm curious: which log10 of Kb was measured for CCN(C(=O)c1cc(F)ccc1-n1nccn1)[C@@H](C)COc1ncc(C(F)(F)F)cc1F tested on human orexin 2 receptor (Homo sapiens, UniProt O43614)?
Reply text: 2.28

Inquiry: I'm curious: which log10 of Kb was measured for CCN(C(=O)c1ccccc1-c1cnc(C)nc1)[C@@H](C)COc1ccc(C(F)(F)F)cn1 tested on human orexin 2 receptor (Homo sapiens, UniProt O43614)?
Reply text: 2.77

Inquiry: I'm curious: which log10 of Kb was measured for CCN(C(=O)c1ccccc1-c1ncccn1)[C@@H](C)COc1ccc(Br)cn1 tested on human orexin 2 receptor (Homo sapiens, UniProt O43614)?
Reply text: 1.54

Inquiry: I'm curious: which log10 of Kb was measured for CCN(C(=O)c1cc(F)cc(F)c1-n1nccn1)[C@@H](C)COc1ccc(OC(F)(F)F)cn1 tested on human orexin 2 receptor (Homo sapiens, UniProt O43614)?
Reply text: 1.61

Inquiry: I'm curious: which log10 of Kb was measured for CCN(C(=O)c1cccc(F)c1-n1nccn1)[C@@H](C)COc1ncc(Br)cc1F tested on human orexin 2 receptor (Homo sapiens, UniProt O43614)?
Reply text: 1.98

Inquiry: I'm curious: which log10 of Kb was measured for CCN(C(=O)c1cc(F)ccc1-n1cccn1)[C@@H](C)COc1ncc(C(F)(F)F)cc1F tested on human orexin 2 receptor (Homo sapiens, UniProt O43614)?
Reply text: 3.03

Inquiry: I'm curious: which log10 of Kb was measured for CCN(C(=O)c1cccc(F)c1-n1nccn1)[C@@H](C)COc1ncc(C(F)(F)F)cc1Cl tested on human orexin 2 receptor (Homo sapiens, UniProt O43614)?
Reply text: 1.72

New cases:
Inquiry: I'm curious: which log10 of Kb was measured for CCN(C(=O)c1ccc(Cl)cc1-n1nccn1)[C@@H](C)COc1ccc(C(F)(F)F)cn1 tested on human orexin 2 receptor (Homo sapiens, UniProt O43614)?
Reply text: 1.34

* * *

- TARGET_OR_SYSTEM: human orexin 2 receptor (Homo sapiens, UniProt O43614)
- Construct: stably expressing the full-length human orexin 2 receptor; expressed in transfected cells; host or cells: CHO-K1 (CHO-K1/hOX2), co-expressing aequorin
- TEST_DESCRIPTION: Assay B: In vitro testing of OX2R potency: OX2R IP1 (HTRF, CHO-K1/hOX2 cells, Orexin A as agonist)
- Assay type: cell-based
- ASSAY_SETUP: Orexin A 0.5 nM
Each record here notes measured Kb.
Only the number, expressed in nM, is required.

Inquiry: I am curious: what Kb value has been reported for CCN(C(=O)c1c(F)cccc1-c1ncccn1)[C@@H](C)COc1ccc(C(F)(F)F)cn1 [Example 116] ?
Reply text: 45

Inquiry: I am curious: what Kb value has been reported for CCN(C(=O)c1cccc(F)c1-c1ncccn1)[C@@H](C)COc1ccc(Br)cn1 [Example 125] ?
Reply text: 27

Inquiry: I am curious: what Kb value has been reported for CCN(C(=O)c1cc(F)cc(F)c1-n1nccn1)[C@@H](C)COc1ncc(C(F)(F)F)cc1F [Example 54] ?
Reply text: 274

Inquiry: I am curious: what Kb value has been reported for CCN(C(=O)c1cccc(Cl)c1-n1nccn1)[C@@H](C)COc1ncc(C(F)(F)F)cc1F [Example 49] ?
Reply text: 22

Inquiry: I am curious: what Kb value has been reported for CCN(C(=O)c1cc(F)c(F)cc1-n1nccn1)[C@@H](C)COc1ncc(C(F)(F)F)cc1F [Example 52] ?
Reply text: 538

Inquiry: I am curious: what Kb value has been reported for CCN(C(=O)c1ccc(F)c(F)c1-n1nccn1)[C@@H](C)COc1ncc(C(F)(F)F)cc1F [Example 50] ?
Reply text: 283

New cases:
Inquiry: I am curious: what Kb value has been reported for CCN(C(=O)c1cc(F)ccc1-n1nccn1)[C@@H](C)COc1ccc(Cl)cn1 [Example 29] ?
Reply text: 71

Inquiry: I am curious: what Kb value has been reported for CCN(C(=O)c1cccc(F)c1-c1ncccn1)[C@@H](C)COc1ccc(OC(F)(F)F)cn1 [Example 130] ?
Reply text: 20

Origin of the recorded values: patent US10787432B2
